Target: Interleukin-23 receptor (Homo sapiens)
Sequence (Q5VWK5 whole entry): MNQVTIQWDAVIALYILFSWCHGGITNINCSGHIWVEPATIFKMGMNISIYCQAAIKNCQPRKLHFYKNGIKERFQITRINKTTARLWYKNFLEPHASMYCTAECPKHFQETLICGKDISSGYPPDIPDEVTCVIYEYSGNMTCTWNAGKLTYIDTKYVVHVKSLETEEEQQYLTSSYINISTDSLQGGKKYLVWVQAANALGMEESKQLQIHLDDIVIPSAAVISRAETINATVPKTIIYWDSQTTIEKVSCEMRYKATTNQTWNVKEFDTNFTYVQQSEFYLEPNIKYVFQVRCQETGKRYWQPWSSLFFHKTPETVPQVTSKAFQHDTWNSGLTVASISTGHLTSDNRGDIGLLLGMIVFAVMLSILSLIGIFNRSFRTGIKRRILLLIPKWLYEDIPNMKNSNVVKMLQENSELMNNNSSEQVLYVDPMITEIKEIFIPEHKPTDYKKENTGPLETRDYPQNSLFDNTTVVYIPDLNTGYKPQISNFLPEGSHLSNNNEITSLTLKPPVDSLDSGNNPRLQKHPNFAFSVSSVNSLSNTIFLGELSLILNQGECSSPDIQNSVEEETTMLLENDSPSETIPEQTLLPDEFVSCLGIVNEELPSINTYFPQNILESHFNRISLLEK
Assay: Inhibition of interleukin-23 binding to human interleukin-23 receptor incubated for 2 hrs by competitive binding ELISA
pIC50: −log10 of the molar value. Where a SMILES comes first, the peptide text is derived from it. [ ]: non-standard residue; d: D form. hLeu = CC(C)CC[C@H](N)C(=O)O
property label: pIC50

compound	value reported
CC(=O)N[C@H](C(=O)N[C@@H](CCC(N)=O)C(=O)N[C@H](C(=O)N[C@@H](Cc1c[nH]c2ccccc12)C(=O)N[C@@H](CCC(N)=O)C(=O)N[C@H](C(=O)N[C@@H](Cc1ccc(OCCN)cc1)C(=O)N[C@@H](Cc1ccc2ccccc2c1)C(=O)NC(C)(C)C(=O)N[C@@H](CCC(=O)O)C(=O)N[C@@H](CC(N)=O)C(=O)N[C@@H](CC(N)=O)C(N)=O)C(C)(C)S)[C@@H](C)O)C(C)(C)S	> 8.00
CC(=O)N[C@@H](CS)C(=O)N[C@@H](CCC(N)=O)C(=O)N[C@H](C(=O)N[C@@H](CCCNC(=N)N)C(=O)N[C@@H](CCC(N)=O)C(=O)N[C@@H](CS)C(=O)N[C@@H](Cc1ccc(O)cc1)C(=O)N[C@@H](Cc1c[nH]c2ccccc12)C(=O)N[C@@H](CCC(C)C)C(=O)N[C@@H](CCC(=O)O)C(=O)N[C@@H](CC(N)=O)C(=O)NCC(N)=O)[C@@H](C)O (Ac-CQTRQCYW[hLeu]ENG-NH2)	< 5.00
CC(=O)N[C@H](C(=O)N[C@@H](CC(N)=O)C(=O)N[C@H](C(=O)N[C@@H](Cc1c[nH]c2ccccc12)C(=O)N[C@@H](CCC(N)=O)C(=O)N[C@H](C(=O)N[C@@H](Cc1ccc(OCCN)cc1)C(=O)N[C@@H](Cc1ccc2ccccc2c1)C(=O)N[C@@](C)(CCCCN)C(=O)N[C@@H](CCC(=O)O)C(=O)N[C@@H](CC(N)=O)C(=O)NCC(N)=O)C(C)(C)S)[C@@H](C)O)C(C)(C)S	> 8.00
CC(=O)NCCCC[C@H](NC(=O)C(C)(C)NC(=O)[C@H](Cc1ccc2ccccc2c1)NC(=O)[C@H](Cc1ccc(OCCN)cc1)NC(=O)[C@@H](NC(=O)[C@H](CCC(N)=O)NC(=O)[C@H](Cc1c[nH]c2ccccc12)NC(=O)[C@@H](NC(=O)[C@H](CCC(N)=O)NC(=O)[C@@H](NC(C)=O)C(C)(C)S)[C@@H](C)O)C(C)(C)S)C(=O)N[C@@H](CC(N)=O)C(=O)N[C@@H](CC(N)=O)C(N)=O	> 8.00

# context switch: different compound, same pIC50
Which pIC50 is listed for CC(=O)N[C@@H](CS)C(=O)N[C@@H](C)C(=O)N[C@@H](CC(=O)O)C(=O)N[C@@H](Cc1c[nH]c2ccccc12)C(=O)N[C@H](C(=O)N[C@@H](CS)C(=O)N[C@@H](Cc1ccc(O)cc1)C(=O)N[C@@H](Cc1c[nH]c2ccccc12)C(=O)N[C@@H](Cc1cnc[nH]1)C(=O)N[C@H](C(=O)N[C@@H](Cc1ccccc1)C(=O)NCC(=O)N[C@@H](CCC(=O)O)C(=O)N[C@@H](CCCNC(=N)N)C(N)=O)[C@@H](C)O)C(C)C ?
> 6.30
